- System: T1, Human FXIa protein (activated coagulation factor XI) (human, UniProt P03951 19-625)
- T1 construct: Bought from Enzyme Research Laboratories (HFXIa 1111a); also called factor XIa; HFXIa 1111a
- Assay: SPR (Biacore T200), antibody captured on Protein A chip, FXIa as analyte, 1:1 Langmuir fit
koff: recorded values
Write the value in s⁻¹ as a bare number.

Binder	Uom	koff
antibody 1267 (Kg3g) (antibody, human IgG1, kappa, V domains shown, Heavy chain is VH + human CH1 + IgG1 Fc) VH: QVQLVQSGAEVKKPGASVKVSCKVSGYTLTSILMHWVRQAPGKGLEWMGGFDPQDGETVYAQKFQGRVTMTEDTSTDTAYMELSSLRSEDTAVYYCATDPHRTWWRYFDWLYPRGMDVWGQGTTVTVSS VL: EIVLTQSPGTLSLSPGERATLSCRASQTVGKNYLAWYQQKPGQAPRLLIYEASVRALGIPDRFSGSGSGTDFTLTISRLEPEDFAVYYCQQFRSYPYTFGQGTKVEIKR	s⁻¹	1.79e-05

Please turn your attention to the following entry.
Request: Supply koff value. Item: antibody 3882 (antibody, human IgG4 S228P, kappa, V domains shown) VH: QVQLVQSGAEVKKPGSSVKVSCKASGGTFSDDYMHWVRQAPGQGLEWMGWIDPENGDTEYASKFQGRVTITADESTSTAYMELSSLRSEDTAVYYCLYGNFYYFDYWGQGTTVTVSS VL: EIVLTQSPATLSLSPGERATLSCSASSSINYMHWYQQKPGQAPKRWIYDTSKLASGVPARFSGSGSGTDFTLTISSLEPEDFAVYYCHQRSFSPLTFGQGTKLEIKR
Result: 0.000387
